target: DPP1 in HL-60 cells (Homo sapiens (Human), UniProt P53634)
Sequence (P53634 25-134): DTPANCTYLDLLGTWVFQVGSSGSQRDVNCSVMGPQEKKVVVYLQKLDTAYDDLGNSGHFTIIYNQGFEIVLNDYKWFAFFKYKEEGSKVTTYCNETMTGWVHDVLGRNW
Sequence (P53634 231-394): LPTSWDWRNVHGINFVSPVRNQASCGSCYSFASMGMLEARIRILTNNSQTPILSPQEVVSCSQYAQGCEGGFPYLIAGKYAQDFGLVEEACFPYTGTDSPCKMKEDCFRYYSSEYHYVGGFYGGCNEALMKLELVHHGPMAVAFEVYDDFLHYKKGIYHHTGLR
Sequence (P53634 395-463): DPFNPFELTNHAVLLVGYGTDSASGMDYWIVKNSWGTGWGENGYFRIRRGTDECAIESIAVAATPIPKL
assay-method-text: DPP1 Cell IC50 assay
Format: cell-based
particulars: H-Gly-Phe-AFC substrate, 60 min pre-incubation
Protocol: Media was changed every three to four days and cells were not allowed to exceed 1×10^6 cells per mL. Prior to assay, cells were collected by centrifugation at 500 rcf for 3 minutes, resuspended in PBS and counted. […] Plates were returned to the incubator with shaking at 100 rpm for 30 minutes, after which fluorescence was measured at Excitation/Emission 400/505 nm. % Inhibition was calculated from RFU values compared to control cell wells that received only PBS plus 0.5% DMSO. […]
attribute-measured: IC50

1. CN(C)C[C@H](O)C(=O)N[C@H](C#N)Cc1cc2c(cc1F)-c1ccc(C#N)cc1CO2 [Compound 277A] | ≥ 2.5 nM
2. CN(C)C[C@H](O)C(=O)N[C@H](C#N)Cc1ccc(-c2ccc3oc(=O)n(CCN4CCOCC4)c3c2)cc1 [Compound 140] | ≥ 2.5 nM
3. Cn1c(=O)oc2ccc(-c3ccc(C[C@@H](C#N)NC(=O)C4(N)CCCC45CC5)cc3)cc21 (some centres unmarked) [Compound 222] | 1 to 2.5 nM
4. Cn1c(=O)oc2ccc(-c3ccc(C[C@@H](C#N)NC(=O)[C@@H](N)[C@@H]4CCc5ccccc54)cc3)cc21 [Compound 206] | ≥ 2.5 nM
5. Cn1c(=O)oc2ccc(-c3ccc(C[C@@H](C#N)NC(=O)C[C@H](N)Cc4cccs4)cc3)cc21 [Compound 182] | ≥ 2.5 nM

*Q* For the molecule shown here, Cn1c(=O)oc2ccc(-c3ccc(C[C@@H](C#N)NC(=O)C(C)(N)C4CCCC4)cc3)cc21 (some centres unmarked) [Compound 219] , give the reported IC50.
*A* 1 to 2.5 nM

*Q* For the molecule shown here, CNC[C@H](OC)C(=O)N[C@H](C#N)Cc1ccc(-c2ccc3oc(=O)n(C)c3c2)cc1 [Compound 109] , give the reported IC50.
*A* ≥ 2.5 nM

*Q* For the molecule shown here, CNC[C@H](O)C(=O)N[C@H](C#N)Cc1ccc(-c2ccc3oc(=O)n(C)c3c2)cc1 [Compound 111] , give the reported IC50.
*A* ≥ 2.5 nM

*Q* For the molecule shown here, C=CCC(CN)C(=O)N[C@H](C#N)Cc1ccc(-c2ccc3oc(=O)n(C)c3c2)cc1 (some centres unmarked) [Compound 167] , give the reported IC50.
*A* ≥ 2.5 nM

*Q* For the molecule shown here, COCCN(C)CCn1c(=O)oc2ccc(-c3ccc(C[C@@H](C#N)NC(=O)[C@](C)(N)C4CCCC4)cc3)cc21 [Compound 258B] , give the reported IC50.
*A* 1 to 2.5 nM

src = patent US20260008758A1
